The entries below are paired with their reported kon.
# TARGET OF ASSAY: T1, C-terminally FLAG-tagged human Gas6 recombinant protein (hGas6-F) (human, UniProt Q14393 31-678, gamma-carboxylated glutamic acid residues in the Gla domain (producer cells co-express rat VKOR and human GGCX); positions not given)
# T1 construct: also called human Gas6-F; human Gas6 protein
# T1 sequence: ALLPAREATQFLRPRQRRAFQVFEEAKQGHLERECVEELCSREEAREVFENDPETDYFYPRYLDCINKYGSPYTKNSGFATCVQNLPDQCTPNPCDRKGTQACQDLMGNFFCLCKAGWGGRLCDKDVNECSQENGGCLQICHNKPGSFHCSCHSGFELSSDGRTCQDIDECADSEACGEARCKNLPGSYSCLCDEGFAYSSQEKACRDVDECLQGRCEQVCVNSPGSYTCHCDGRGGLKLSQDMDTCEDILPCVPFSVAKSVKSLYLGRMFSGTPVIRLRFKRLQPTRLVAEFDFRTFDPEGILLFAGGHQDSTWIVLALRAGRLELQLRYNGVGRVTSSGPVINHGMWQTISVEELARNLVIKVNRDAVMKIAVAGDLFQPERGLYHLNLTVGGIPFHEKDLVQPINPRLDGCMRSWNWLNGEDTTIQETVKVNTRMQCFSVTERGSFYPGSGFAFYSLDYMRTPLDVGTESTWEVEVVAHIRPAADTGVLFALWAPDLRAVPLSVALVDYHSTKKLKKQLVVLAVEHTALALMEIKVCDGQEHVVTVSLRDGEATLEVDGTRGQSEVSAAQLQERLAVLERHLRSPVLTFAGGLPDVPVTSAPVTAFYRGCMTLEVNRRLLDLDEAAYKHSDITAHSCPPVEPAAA
# ASSAY REMARKS: SPR Biacore T100, captured antibody, Gas6 analyte, first test

hzKM5320 LV3HV0 antibody (antibody, V domains shown, Humanized; variant human IgG4 constant region (EU S228P, L235E, R409K), human kappa; also called A-07) VH: QVQLVQSGSELKKPGASVKVSCKASGYTFTNYGMNWVRQAPGQGLEWMGWINTETGEPTYSDDFKGRFVFSLDTSVSTAYLQISSLKAEDTAVYYCAREDGYYGTLDYWGQGTTVTVSS VL: DVVMTQSPDSLAVSLGERVTINCKASQSVSNDVAWYQQKPGQSPKVLIYYASNRYTGVPDRFSGSGSGTDFTFTISSLQAEDVAVYFCQQDYSSPWTFGQGTKLEIK | > 71900 M⁻¹ s⁻¹
hzKM5321 LV9HV0 antibody (antibody, V domains shown, Humanized; variant human IgG4 constant region (EU S228P, L235E, R409K), human kappa; also called B-11; LV9HV0) VH: QVHLVQSGSELKKPGASVKISCKASGYTFTNYGMNWVRQAPGQGLEWMGWINTNTGEPTYTEEFKGRFVFSLDTSVTTSYLQISTLKAEDTAVYFCARDEGWFVYWGQGTLVTVSS VL: ETTVTQSPSSLSVSTGDRVTITCITSTDIDDDMNWYQQKPGKPPKLLISEGNTLRPGVPSRFSSSGSGTDFTFTISSTQPEDFADYYCLQTDSVPLTFGQGTKLEIK | > 126000 M⁻¹ s⁻¹
hzKM5320 LV6HV8 antibody (antibody, V domains shown, Humanized; variant human IgG4 constant region (EU S228P, L235E, R409K), human kappa; also called A-17) VH: QIQLVQSGPELKKPGASVKISCKASGYTFTNYGMNWVKQAPGQGLKWMGWINTETGEPTYSDDFKGRFVFSLDTSVTTAYLQISSLKAEDTATYFCAREDGYYGTLDYWGQGTTVTVSS VL: DIVMTQSPDSLAVSAGERVTINCKASQSVSNDVAWYQQKPGQSPKVLIYYASNRYTGVPDRFSGSGSGTDFTFTISSVQAEDVAVYFCQQDYSSPWTFGQGTKLEIK | > 72500 M⁻¹ s⁻¹
hzKM5320 LV0HV8 antibody (antibody, V domains shown, Humanized; variant human IgG4 constant region (EU S228P, L235E, R409K), human kappa; also called A-10) VH: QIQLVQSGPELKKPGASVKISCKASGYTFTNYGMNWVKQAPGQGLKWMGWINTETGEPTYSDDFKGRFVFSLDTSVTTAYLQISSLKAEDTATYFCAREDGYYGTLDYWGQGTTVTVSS VL: DVVMTQSPDSLAVSLGERVTINCKASQSVSNDVAWYQQKPGQSPKLLIYYASNRYTGVPDRFSGSGSGTDFTLTISSLQAEDVAVYYCQQDYSSPWTFGQGTKLEIK | > 72900 M⁻¹ s⁻¹

I am curious: what kon value has been reported for hzKM5320 LV1bHV8 antibody (antibody, V domains shown, Humanized; variant human IgG4 constant region (EU S228P, L235E, R409K), human kappa; also called A-12) VH: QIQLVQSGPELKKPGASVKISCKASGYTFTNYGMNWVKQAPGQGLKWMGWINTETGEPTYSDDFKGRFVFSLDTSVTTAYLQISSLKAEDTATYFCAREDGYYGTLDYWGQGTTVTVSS VL: DVVMTQSPDSLAVSLGERVTINCKASQSVSNDVAWYQQKPGQSPKLLIYYASNRYTGVPDRFSGSGSGTDFTLTISSVQAEDVAVYYCQQDYSSPWTFGQGTKLEIK ? > 77900 M⁻¹ s⁻¹

Entry to check: hzKM5320 LV5HV3a antibody (antibody, V domains shown, Humanized; variant human IgG4 constant region (EU S228P, L235E, R409K), human kappa; also called A-21) VH: QVQLVQSGSELKKPGASVKVSCKASGYTFTNYGMNWVRQAPGQGLKWMGWINTETGEPTYSDDFKGRFVFSLDTSVSTAYLQISSLKAEDTATYFCAREDGYYGTLDYWGQGTTVTVSS VL: DIVMTQSPDSLAVSLGERVTINCKASQSVSNDVAWYQQKPGQSPKVLIYYASNRYTGVPDRFSGSGSGTDFTFTISSVQAEDVAVYFCQQDYSSPWTFGQGTKLEIK > 77100 M⁻¹ s⁻¹

Entry to check: hzKM5320 LV1aHV8 antibody (antibody, V domains shown, Humanized; variant human IgG4 constant region (EU S228P, L235E, R409K), human kappa; also called A-11) VH: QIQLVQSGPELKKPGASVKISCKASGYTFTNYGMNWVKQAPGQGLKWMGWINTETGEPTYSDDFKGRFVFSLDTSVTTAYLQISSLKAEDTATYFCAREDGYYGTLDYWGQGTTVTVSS VL: DVVMTQSPDSLAVSLGERVTINCKASQSVSNDVAWYQQKPGQSPKLLIYYASNRYTGVPDRFSGSGSGTDFTLTISSLQAEDVAVYFCQQDYSSPWTFGQGTKLEIK > 72000 M⁻¹ s⁻¹

Entry to check: hzKM5321 LV9HV7 antibody (antibody, V domains shown, Humanized; variant human IgG4 constant region (EU S228P, L235E, R409K), human kappa; also called B-21; LV9HV7) VH: QIHLVQSGPELKKPGASVKISCKASGYTFTNYGMNWVKQAPGQGLKWMGWINTNTGEPTYTEEFKGRFVFSLDTSVTTAYLQISTLKAEDTATYFCARDEGWFVYWGQGTLITVSS VL: ETTVTQSPSSLSVSTGDRVTITCITSTDIDDDMNWYQQKPGKPPKLLISEGNTLRPGVPSRFSSSGSGTDFTFTISSTQPEDFADYYCLQTDSVPLTFGQGTKLEIK > 106000 M⁻¹ s⁻¹

Entry to check: hzKM5321 LV0HV7 antibody (antibody, V domains shown, Humanized; variant human IgG4 constant region (EU S228P, L235E, R409K), human kappa; also called B-12; LV0HV7) VH: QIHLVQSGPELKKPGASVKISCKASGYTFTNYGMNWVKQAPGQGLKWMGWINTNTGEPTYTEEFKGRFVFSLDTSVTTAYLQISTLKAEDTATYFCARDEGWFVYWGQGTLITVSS VL: ETTLTQSPSSLSASVGDRVTITCITSTDIDDDMNWYQQKPGKAPKLLISEGNTLRPGVPSRFSGSGSGTDFTLTISSLQPEDFATYYCLQTDSVPLTFGQGTKVEIK > 100000 M⁻¹ s⁻¹

Entry to check: hzKM5321 LV6HV2b antibody (antibody, V domains shown, Humanized; variant human IgG4 constant region (EU S228P, L235E, R409K), human kappa; also called B-24; LV6HV2b) VH: QVHLVQSGPELKKPGASVKISCKASGYTFTNYGMNWVRQAPGQGLEWMGWINTNTGEPTYTEEFKGRFVFSLDTSVTTSYLQISTLKAEDTATYFCARDEGWFVYWGQGTLVTVSS VL: ETTLTQSPSSLSVSTGDRVTITCITSTDIDDDMNWYQQKPGKPPKLLISEGNTLRPGVPSRFSSSGSGTDFTLTISSTQPEDFADYYCLQTDSVPLTFGQGTKVEIK > 103000 M⁻¹ s⁻¹
